System: Pseudomonas aeruginosa PA14
Test: OD600 after 10 h growth (baseline-subtracted); higher = more bacterial growth (less inhibition)
Details: 0.5 µg/mL
assay-endpoint: OD600 after 10 h growth

// solved cases for OD600 after 10 h growth follow
CC(C)(C)c1ccc(C(=O)CCCN2CCC(OC(c3ccccc3)c3ccccc3)CC2)cc1; 0.744
Cc1cn([C@H]2C[C@H](O)[C@@H](CO)O2)c(=O)[nH]c1=O; 0.749

Give me OD600 after 10 h growth for each of these compounds, listed below.
1. Cc1c(Cl)c(C)[n+]([O-])c(Cl)c1-c1noc(-c2cc(O)c(O)c([N+](=O)[O-])c2)n1
2. CC(=O)N[C@H](Cc1ccc2ccccc2c1)C(=O)N[C@H](Cc1ccc(Cl)cc1)C(=O)N[C@H](Cc1cccnc1)C(=O)N[C@@H](CO)C(=O)N[C@@H](Cc1ccc(O)cc1)C(=O)N[C@H](CCCNC(N)=O)C(=O)N[C@@H](CC(C)C)C(=O)N[C@@H](CCCNC(=N)N)C(=O)N1CCC[C@H]1C(=O)N[C@H](C)C(N)=O
3. COc1cc2c(cc1Cc1cccc(Cl)c1F)c(=O)c(C(=O)O)cn2[C@H](CO)C(C)C
4. CC1=C(C)C(=O)C(CCCCCCCCCC[P+](c2ccccc2)(c2ccccc2)c2ccccc2)=CC1=O

0.764
0.742
0.751
0.757
